assay: Balb/C mouse pharmacokinetics (plasma, colon, ileum); format: in vivo; settings: male, plasma, po, Balb/C mice, p.o. 5 mg/kg, blood, read-out: Blood concentration Cmax
// label 0 strictly below 7 ng/mL in Cmax; label 1 otherwise

Request: For this compound, is measured Cmax 7 ng/mL or higher? Cc1cnc(Nc2cc3ncccc3c(N[C@@H]3C[C@H]4CC[C@@H](C3)N4CCC#N)n2)s1 [Embodiment 1]
Result: label 1

Request: For this compound, is measured Cmax 7 ng/mL or higher? COc1ccc2c(Nc3cc(C)[nH]n3)nc(N[C@@H]3C[C@H]4CC[C@@H](C3)N4CCC#N)nc2c1 [Embodiment 169]
Result: label 0

Request: For this compound, is measured Cmax 7 ng/mL or higher? Cc1cc(Nc2nc(N[C@@H]3C[C@H]4CC[C@@H](C3)N4CCC#N)nc3cc(Cl)ccc23)n[nH]1 [Embodiment 171]
Result: label 1

Request: For this compound, is measured Cmax 7 ng/mL or higher? Cc1cc(Nc2nc(N[C@@H]3C[C@H]4CC[C@@H](C3)N4CCC#N)nc3c2cnn3C)n[nH]1 [Embodiment 295]
Result: label 0

Request: For this compound, is measured Cmax 7 ng/mL or higher? Cc1cc(Nc2nc(N[C@@H]3C[C@H]4CC[C@@H](C3)N4CCC#N)nc3ccsc23)n[nH]1 [Embodiment 60]
Result: label 1

Request: For this compound, is measured Cmax 7 ng/mL or higher? Cc1cc(Nc2nc(N[C@@H]3C[C@H]4CCC[C@@H](C3)N4C(=O)c3nccn3C)nc3sccc23)n[nH]1 [Embodiment 263]
Result: label 1

Request: For this compound, is measured Cmax 7 ng/mL or higher? Cc1cc(Nc2nc(N[C@@H]3C[C@H]4CC[C@@H](C3)N4CCC#N)nc3cc(-c4cccnc4)ccc23)n[nH]1 [Embodiment 179]
Result: label 0

Request: For this compound, is measured Cmax 7 ng/mL or higher? Cc1cc(Nc2nc(N[C@@H]3C[C@H]4CC[C@@H](C3)N4C(=O)CN3CCOCC3)nc3sccc23)n[nH]1 [Embodiment 244]
Result: label 1

Request: For this compound, is measured Cmax 7 ng/mL or higher? Cc1cc(Nc2nc(N[C@@H]3C[C@@H]4CN(CCC#N)C[C@@H]4C3)nc3ccsc23)n[nH]1 [Embodiment 299]
Result: label 0

* * *

Biological target: JAK3 (Homo sapiens)
Sequence (P52333 1-1124): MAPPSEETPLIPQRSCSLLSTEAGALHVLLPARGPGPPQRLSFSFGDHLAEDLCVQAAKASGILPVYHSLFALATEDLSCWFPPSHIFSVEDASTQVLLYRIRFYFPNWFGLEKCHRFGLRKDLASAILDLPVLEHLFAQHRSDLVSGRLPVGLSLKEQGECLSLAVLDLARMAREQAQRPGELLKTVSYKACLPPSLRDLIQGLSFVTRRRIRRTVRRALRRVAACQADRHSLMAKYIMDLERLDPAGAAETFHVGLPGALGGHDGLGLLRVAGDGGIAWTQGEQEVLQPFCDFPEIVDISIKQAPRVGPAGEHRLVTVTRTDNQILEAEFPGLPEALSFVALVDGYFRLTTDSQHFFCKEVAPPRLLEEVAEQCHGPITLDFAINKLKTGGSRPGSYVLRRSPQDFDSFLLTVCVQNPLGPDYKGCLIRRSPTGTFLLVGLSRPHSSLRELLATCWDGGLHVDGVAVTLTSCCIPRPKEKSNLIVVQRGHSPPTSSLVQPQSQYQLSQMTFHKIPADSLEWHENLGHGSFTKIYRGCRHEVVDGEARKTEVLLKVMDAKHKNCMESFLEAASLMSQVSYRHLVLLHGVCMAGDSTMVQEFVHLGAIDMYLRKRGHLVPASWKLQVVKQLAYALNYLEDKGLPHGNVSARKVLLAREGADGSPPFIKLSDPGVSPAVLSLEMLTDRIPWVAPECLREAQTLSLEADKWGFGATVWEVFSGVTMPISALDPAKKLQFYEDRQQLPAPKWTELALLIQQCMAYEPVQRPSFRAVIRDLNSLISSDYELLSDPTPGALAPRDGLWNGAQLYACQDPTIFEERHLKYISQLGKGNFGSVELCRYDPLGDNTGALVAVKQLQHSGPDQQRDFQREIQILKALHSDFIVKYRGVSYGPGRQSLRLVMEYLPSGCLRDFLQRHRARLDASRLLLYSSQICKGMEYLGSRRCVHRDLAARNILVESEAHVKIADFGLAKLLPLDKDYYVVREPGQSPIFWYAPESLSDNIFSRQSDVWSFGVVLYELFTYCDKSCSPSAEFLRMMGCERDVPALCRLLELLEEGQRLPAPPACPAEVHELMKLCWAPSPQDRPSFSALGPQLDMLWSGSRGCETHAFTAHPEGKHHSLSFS
Value type: pIC50
When answering, recall that pIC50 equals minus log10 of the concentration in mol/L, and write that number alone.

Request: pIC50 lookup needed for Cc1cc(Nc2nc(N[C@@H]3C[C@H]4CCC[C@@H](C3)N4CCC#N)nc3scnc23)n[nH]1 [Embodiment 278] , thanks.
Result: 8.15

Request: pIC50 lookup needed for Cc1cc(Nc2nc(N[C@@H]3C[C@H]4CCC[C@@H](C3)N4S(=O)(=O)N3CC(C#N)C3)nc3sccc23)n[nH]1 [Embodiment 238] , thanks.
Result: 9.15

Request: pIC50 lookup needed for Cc1cc(Nc2nc(N[C@@H]3C[C@H]4CC[C@@H](C3)N4S(=O)(=O)N3CC(C#N)C3)nc3sccc23)n[nH]1 [Embodiment 237] , thanks.
Result: 8.44

Request: pIC50 lookup needed for Cc1cc(Nc2nc(N[C@@H]3C[C@H]4CC[C@@H](C3)N4CCC#N)nc3cc[nH]c23)n[nH]1 [Embodiment 40] , thanks.
Result: 8.06

Request: pIC50 lookup needed for Cc1cc(Nc2nc(N[C@@H]3C[C@H]4CC[C@@H](C3)N4CCC#N)nc3sc(C)cc23)n[nH]1 [Embodiment 277] , thanks.
Result: 8.08

Request: pIC50 lookup needed for Cc1cc(Nc2nc(N[C@@H]3C[C@H]4CCC[C@@H](C3)N4C(=O)CN3CCOCC3)nc3sccc23)n[nH]1 [Embodiment 246] , thanks.
Result: 8.16
